# procedureText: Cytotoxicity against mouse B16F10 cells assessed as cell viability at 40 to 120 uM after 72 hrs by MTT assay
# Type: cell-based, B16-F10
valueType: viability at 72 h, up to 120 µM

Recorded viability at 72 h, up to 120 µM for Oc1cc(O)cc(Oc2c(O)cc(O)c3c2Oc2c(O)cc(Oc4c(O)cc(Oc5c(O)cc(O)c6c5Oc5c(O)cc(O)cc5O6)cc4O)cc2O3)c1 [DIECKOL] , please? > 95%

Data provenance: ChEMBL document CHEMBL1926566
